All figures here come from ChEMBL document CHEMBL1151735.

# assay.comment: AUC (0 to infinity) in rat at 5 mg/kg, po
# Type: ADME, organism-based
# Parameters: time infinity, dose 5 mg/kg, route oral
# reported.conditions: plasma

structure.smiles.string: C[C@H](NC1=NC(=O)[C@](C)(C(C)(C)O)S1)c1ccc(F)cc1
units.symbol: ng·h/mL
AUC(0-inf): 9200

---

# assay.comment: AUC (0 to infinity) in dog at 5 mg/kg, po
# Format: ADME, organism-based, Canis lupus familiaris
# Parameters: time infinity, dose 5 mg/kg, route oral
# reported.conditions: plasma

structure.smiles.string: C[C@H](NC1=NC(=O)[C@](C)(C(C)(C)O)S1)c1ccc(F)cc1
AUC(0-inf) (ng·h/mL): 54000
